tested on: HeLa; assay: Primary qHTS to identify gynecologic anti-cancer compounds using libraries of approved drugs and bioactive compounds (AID 1345084); details: Gynecologic cancer cell panel viability, ATPlite luminescence, 48 h; series mostly up to 57.5 µM; also: nearly all actives have a fitted effect of over 55% in size
Inconclusive results are not listed. Calls of active or inactive are those of the source. Calls follow the shape of the dose curve; as a rule, active = well fitted cell-killing curve with a large enough effect; inconclusive = small, poorly fitted or top-dose-only effect, or effect the other way; inactive = flat fitted curve, though single readings scatter.
One label from this list, please: active, inactive

> print(dat)
             molecule  targetortestsystem     group
1  CCCc1ncc(C(=O)O)s1                HeLa  inactive

Q: # fetch the recorded call for CCN(CC)C(=O)C1CN2CCc3cc(OC)c(OC)cc3C2CC1OC(C)=O (stereo unspecified) here
Ans: inactive

Q: # fetch the recorded call for CC(C)(C)c1nnc(NS(=O)(=O)c2ccccc2)s1 here
Ans: inactive

Q: # fetch the recorded call for O=C1CC2(CCCC2)CC(=O)N1CCNCC1COc2ccccc2O1 (stereo unspecified) here
Ans: inactive

Q: # fetch the recorded call for CCOC(=O)c1cc(=O)c2c(OCC(COc3cccc4oc(C(=O)OCC)cc(=O)c34)OC(=O)[C@@H](N)CCCCN)cccc2o1 here
Ans: inactive

Q: # fetch the recorded call for O=C1NC(c2ccccc2)(c2ccccc2)C(=O)N1COP(=O)(O)O here
Ans: inactive

Attribution: PubChem BioAssay (NCATS)
